test system: SK-MEL-5 melanoma; assay: NCI tumour cell line growth inhibition, 48 h; in the data active means GI50 below about 0.43 µM; inactive means the rest
Lab note: assign the record to one of active, inactive

Task item: Could you please tell me the result logged for `O=C1NC(=NCCc2cccc(F)c2)S/C1=C\c1ccc2ncccc2c1` in this assay?
Reply: inactive

Task item: I'd appreciate the recorded outcome for `O=C(Nc1ccc(-n2ccc3c(NC(=O)c4ccccc4)nccc32)cc1)c1ccc(Cl)c(C(F)(F)F)c1` from this test.
Reply: active

Task item: Record request — test call for `COC(=O)/C=C1\S/C(=N\NC(=O)c2cc3ccc2/C=C\c2ccc(cc2)/C=C\3)N(c2ccccc2)C1=O`
Reply: inactive

Task item: Could you check what this test reported for `Cc1ccnc2c1ccc1c(C)ccnc12` ?
Reply: active

Task item: Dear all, I need the recorded test outcome for `Cc1nc2sccn2c1-c1csc(Nc2ccccc2Cl)n1` , thank you.
Reply: inactive

Task item: Hi, sorry to bother you, what did the test record for `CN(C)c1ccc(/C=C\C2=[N+](C)c3ccccc3C2(C)C)cc1` ?
Reply: inactive

Task item: What classification did OC1CSSC1Cn1cnc2c(Nc3ccc(OCc4cccc(F)c4)c(Cl)c3)ncnc21 (stereo not given) end up with in this test?
Reply: inactive

Task item: Answer briefly: the call reported for `CCC[CH2][Sn]([CH2]CCC)([S]c1cccc2cccnc12)[S]c1cccc2cccnc12` in this assay.
Reply: active

Task item: State the result this test recorded for `Nc1ccccc1C#C/C=C\C#Cc1ccccc1OC(F)(F)F` .
Reply: inactive

Task item: Name the outcome recorded for `CCN1/C(=C\c2cc[n+](CC)c3ccccc23)C=Cc2ccccc21` in the assay.
Reply: active

---

tested on: MALME-3M melanoma; experiment: NCI tumour cell line growth inhibition, 48 h
Give measured TGI for each item. Keep answers brief.

TGI for `Cc1ccc(Cl)c2[nH]c(-c3ccccc3)cc(=O)c12` is > 100 µM

response.value for `COc1ccc(-c2c(C#N)c(-c3ccc(C)cc3)n(NS(=O)(=O)c3ccc(C)cc3)c(=O)c2C#N)cc1` (field: TGI) = > 100 µM

Lookup result for `COc1ccc(-c2cc(O)c3nc4ccccc4n3c2)cc1` ; measured TGI: > 100 µM

molecule COC(=O)C([C@H](NC1(c2ccccc2)c2ccccc2-c2ccccc21)C(=O)OC)N(NC(=O)OCc1ccccc1)C(=O)OCc1ccccc1 (mixture of isomers) , TGI observed: > 100 µM

Record `Cc1nc2n(c1/C=C1/C(=O)Nc3cccc(Cl)c31)CCS2` . Reported TGI: > 100 µM

According to the records, this molecule `Cc1nc2c(ccc3ncccc32)[nH]1` displays TGI of > 100 µM

Looking up COc1cc2c(cc1OCCCCN1CCN(CC(=O)Nc3ccc(Cl)cc3C(=O)c3ccccc3Cl)CC1)N=CC1CCCN1C2=O (stereo not given) , I see its TGI listed as 0.346 µM

Entry `COc1cc2cc(OC)c3cc4c(cc3c2c(OC)c1OC)OCO4` ; TGI = > 100 µM

Per the records, this molecule ( `O=[N+]([O-])c1ccc2c(c1)c(OCc1ccccc1)nn2Cc1ccccc1` ) has TGI equal to > 100 µM

Notebook: `O=C(NC(=O)c1ccccc1[N+](=O)[O-])Nc1ccc(Oc2ncc(Br)cn2)c(Cl)c1` , TGI read as 0.0537 µM

---

test system: NCI-H226 lung; assay: NCI tumour cell line growth inhibition, 48 h
Hi there, I'd appreciate the recorded TGI for every entry that follows.

Per the record, `CCN1/C(=C\c2cc[n+](CC)c3ccccc23)C=Cc2ccccc21` has TGI of 13.1 µM

Form: compound = `CNS(=O)(=O)NNS(=O)(=O)c1ccccc1` ; TGI = > 100 µM

Short answer for `Cc1ccsc1C(=S)Nc1ccc(Cl)c(/C=N/OC(C)(C)C)c1` : TGI was > 100 µM

Kindly note the recorded TGI for `Cc1ccc(C(=O)O)cc1S(=O)(=O)Nn1cnc2ccc(S(=O)(=O)Nc3ccccc3C(=O)O)cc2c1=O` , which is > 100 µM

// TGI value for `COc1ccc2c(c1)/C(=C/CCN(C)C)c1ccccc1S2` : > 100 µM

Value of TGI reported for the compound `N#CC1(C#N)N[C@@H](c2ccsc2)[C@H]2C(=O)N(c3ccccc3)C(=O)[C@H]21` is > 100 µM

Lab note: COC(=O)c1ccccc1CC1Cc2ccc3c(c2C1=O)CCCC3 (stereo unspecified) gave TGI of > 100 µM

Query `O=C(CCNC12CC3CC(CC(C3)C1)C2)c1ccccc1` yields TGI of > 100 µM

The compound `C=CCN1C[C@H](C)N([C@H](c2ccc(C(=O)NC(CC)CC)cc2)c2cccc(OC)c2)C[C@H]1C` showed TGI equal to > 100 µM

Query `Fc1ccc(NC(=S)SCc2ccc3c(c2)OCO3)cc1F` yields TGI of > 100 µM

The compound `COC(=O)/C=C1\S/C(=N\NC(=O)c2cc3ccc2/C=C\c2ccc(cc2)/C=C\3)N(c2ccccc2)C1=O` showed TGI equal to 25.5 µM

The compound listed as CN1CCc2cc(N)cc3c2C1Cc1ccc(O)c(O)c1-3 (stereo unspecified) has a reported TGI of 82.8 µM

For `NC(N)=N/N=C/c1c(-c2ccc(N)cc2)nc2sccn12` the compound record lists TGI as > 100 µM

// CC1(C)OC(=O)N(c2ccccc2)C12C=Cc1cc([N+](=O)[O-])cc([N+](=O)[O-])c1O2 (stereo unspecified) : TGI value = > 100 µM

TGI measured on `C=CC(=O)Nc1cc(Nc2ncc(C(=O)OC(C)C)c(-c3cn(C)c4ccccc34)n2)c(OC)cc1N(C)CCN(C)C` = 29.5 µM

Entry N#CCCC1C(C#N)C2(Cl)CC1(Cl)C(Cl)=C2Cl (stereo unspecified) , TGI reported as > 10 µM

Looking up `COc1cc2nc3n(c(=O)c2cc1OC)-c1ccc([N+](=O)[O-])cc1C3=O` , I found its TGI recorded as > 100 µM

The compound listed as `CCOC(=O)CSc1c(C(=O)OCC)c(=O)n(-c2ccccc2)c(=S)n1-c1ccccc1` shows TGI equal to > 100 µM

Query `CC(C)(C)N1CSC(=S)N(Cc2ccco2)C1` yields TGI of 41.4 µM

For this compound ( NC(=O)NCCCC(NC(=O)OCCCCn1ccc(=O)[nH]c1=O)C(=O)O (stereo unspecified) ), measured TGI is > 100 µM

Recorded result, `CCN(CC)CCSc1c2ccccc2nc2cc(NCC(=O)Nc3ccccc3-c3ccccc3NC(=O)CNc3ccc4c(SCCN(CC)CC)c5ccccc5nc4c3)ccc12` , TGI: > 100 µM
